Provenance of the data: patent US20230346670A1

# Test system: P. intermedia virulence genes
# TEST_PROTOCOL: Virulence gene expression in multi-species biofilm (SYBR RT-qPCR)
# Type: cell-based
# MEASUREMENT_CONTEXT: lower part of Table 6d, head prints 1 M (lower part 1%(w/v)); relative to control = 1
// values below are reported fold change in ECF expression, geometric mean (95% C.I.)
QUANTITY_NAME: fold change in ECF expression, geometric mean (95% C.I.)

[[record]]
molecule = "OC[C@H]1O[C@@H](O[C@H]2[C@H](O)[C@@H](O)[C@@H](O)O[C@@H]2CO)[C@H](O)[C@@H](O)[C@H]1O"
reported_result = "0.26 (0.12-0.58)^∗ fold"

[[record]]
molecule = "OC[C@H]1O[C@H](OC[C@H]2O[C@H](O[C@]3(CO)O[C@H](CO)[C@@H](O)[C@@H]3O)[C@H](O)[C@@H](O)[C@@H]2O)[C@H](O)[C@@H](O)[C@H]1O [D-raffinose, D-(+)-raffinose]"
reported_result = "0.96 (0.56-1.64) fold"

[[record]]
molecule = "CC(=O)N[C@H]1C(O)O[C@H](CO)[C@@H](O)[C@@H]1O (stereo partly shown)"
reported_result = "0.48 (0.11-2.02) fold"

[[record]]
molecule = "OC[C@H]1O[C@H](O[C@H]2O[C@H](CO)[C@@H](O)[C@H](O)[C@H]2O)[C@H](O)[C@@H](O)[C@@H]1O [D-trehalose, D-(+)-trehalose]"
reported_result = "0.69 (0.53-0.91) fold"

